# testDetails: Toxicity liver stage against HepG2, at 10uM
# Type: cell-based
# Design: test concentration 10 uM, cell line HepG2-A16-CD81EGFP
# conditionInfo: human, HepG2-A16-CD81EGFP cells; read-out: INHIBITION
// reported cytotoxicity at 10 µM for each item listed
experimentalEndpoint: cytotoxicity at 10 µM (%)

INSERT INTO assay_data (compound, measurementunits, quantitativereadout) VALUES
  ('Cc1noc(C)c1CSC1CCCN(c2cnn(C)c2)C1=O (configuration not stated)', '%', 16.8),
  ('CCCN1CCN(C(=O)c2cccnc2)CC1', '%', -48.5),
  ('CC(=O)c1cn(CC(=O)N2CCC(O)(CO)CC2)c2ccccc12', '%', 1.13),
  ('CN(Cc1cnn(C)c1)C(=O)CN1CCCC(Cn2cncn2)C1 (configuration not stated)', '%', -0.808),
  ('CN(C)CC1CSCCCN1C(=O)c1ccsc1 (configuration not stated)', '%', 5.09),
  ('Cc1cccn2c(=O)cc(OC(=O)c3ccccc3Cl)nc12', '%', 10.7),
  ('COCCN1CC2(CCN(C(=O)c3ccno3)CC2)c2ccccc21', '%', 0.729),
  ('COc1cccc(CN2CCC3(COCc4cnc(N(C)C)nc43)C2)c1 (configuration not stated)', '%', 11.2),
  ('COC[C@@H]1CCCN1C(=O)c1cc(-c2cccc(OC)c2)n[nH]1', '%', 6.6),
  ('Cc1ccsc1CCNC(=O)C1(Oc2cccnc2C)CCNCC1', '%', -2.37),
  ('NC(=O)Nc1cc(Br)cnc1OCC(F)(F)F', '%', 8.28),
  ('CNC(=O)c1cc(S(=O)(=O)C(C)C)cs1', '%', 5.08),
  ('O=c1[nH]c(CCN2CCN(CC(F)(F)F)CC2)nc2ccccc12', '%', 4.44),
  ('CCN1CC2(CCCCN2C(=O)c2ccsc2)CC1=O (configuration not stated)', '%', 5.97),
  ('O=C1[C@H]2CN(C3CCOCC3)C[C@H]2CN1Cc1cccc(F)c1', '%', -117),
  ('c1cnc(N2CCCC3(CCN(CC4CC4)C3)C2)nc1 (configuration not stated)', '%', -76.9),
  ('Cc1ccc(N2CC[C@]3(O)CCN(CCN4CCCC4=O)C[C@@H]3C2)nn1', '%', -10.1),
  ('CCOC(=O)CN1CCC2(CC1)CC(=O)c1ccc3ccccc3c1O2', '%', 3.33),
  ('CCOCCCNC(=O)c1cc(C)nc(N2CCCCC2)n1', '%', 8.52),
  ('O=C(CC1CC1)N[C@@H]1CN(C(=O)c2cccs2)C[C@@H]2CCCO[C@@H]21', '%', -113),
  ('Cc1cc(NC(=O)CN2CCCC2c2noc(C(C)C)n2)on1 (configuration not stated)', '%', -6.31),
  ('c1ccc(-c2nc(CN3CCOC(Cn4cccn4)C3)no2)cc1 (configuration not stated)', '%', 10.1),
  ('CCC1(c2ccc(NS(=O)(=O)c3ccc(Cl)s3)cc2)CCC(=O)NC1=O (configuration not stated)', '%', 13.5),
  ('NC(=O)CC1CCCN(c2cncc(SCc3ccccc3)n2)C1 (configuration not stated)', '%', 11),
  ('COc1ccccc1CN1C[C@@H](F)[C@@H](OCc2nc3ncccc3[nH]2)C1', '%', 6.96),
  ('CS(=O)(=O)NCc1cc(=O)n2c(n1)CN(CC1CC1)CCC2', '%', -104),
  ('O=C(c1cnccn1)N1C[C@@H]2CCN(c3cccnc3)C[C@@H]2C1', '%', -65.8),
  ('Cc1cnn(C2CCCN(C(=O)c3ccccc3-n3cnnn3)C2)c1 (configuration not stated)', '%', -6.92),
  ('CCN(Cc1cccc(C(=O)Nc2cn(C)nn2)c1)[C@H]1COC[C@@H]1O', '%', -2.77),
  ('O=C1CO[C@@H]2CNC[C@H]2N1CC1CC1', '%', -95.7),
  ('CCc1nc(N2CCCN(c3ncccn3)CC2)c2cnn(C)c2n1', '%', 2.22),
  ('Cn1ccnc1CNC(=O)CCc1cccc(F)c1', '%', 0.293),
  ('CCN(CC)c1ccc(C(=O)N2CCC(c3nc(C)no3)CC2)cn1', '%', -7.42),
  ('COCCOC1CCN(C(C(=O)O)c2ccc3c(c2)OCO3)CC1 (configuration not stated)', '%', 9.07),
  ('CCNC(=O)[C@@H]1C[C@@H](N)CN1C(=O)c1cc2ccccc2[nH]1', '%', -9.6),
  ('Cn1ccc2c(-c3cc(N4CCOCC4)ncn3)ccnc21', '%', 2.64),
  ('CSCC[C@H](N)c1nnc(SCC(=O)Nc2ccc(Br)cc2)o1', '%', -2.15),
  ('CN(C)C(=O)N1CCC2(CC1)CNc1ccc(F)cc12', '%', 8.88),
  ('CCN(Cc1nccn1C)C(=O)c1ccc(NCCc2c[nH]cn2)nc1', '%', -2.5),
  ('CNc1cncc(C2CCCN2S(=O)(=O)c2cccc(F)c2)n1 (configuration not stated)', '%', -15.3),
  ('CCN(CC)c1ccc(C(=O)NCc2cccnc2-n2cncn2)cn1', '%', 11.7),
  ('CC(C)(C)c1nnc(CN2CCN(C(=O)CC3CCCCC3)CC2)o1', '%', 15.3),
  ('CC(=O)N1CCN(Cn2nc(-c3ccc(F)cc3)oc2=O)CC1', '%', -3.89),
  ('CCc1c(C)nc(N)nc1NCCSCc1[nH]cnc1C', '%', 4.5),
  ('COc1ccc(C(=O)N2CC(=O)N(C3CCC3)CC(O)C2)c(OC)c1 (configuration not stated)', '%', -0.373),
  ('CCOc1ccnc(N2CCN(C(=O)c3ccoc3)CC2)n1', '%', -6.1),
  ('NCc1n[nH]c(-c2ccc(F)cc2)n1', '%', 0.186);
